Target: T1, ST2 on the effector cells (KU812, KU812/NF-κB-1#, HUVEC, HMC-1) (human, UniProt Q01638 19-556)
T1 sequence (looked up): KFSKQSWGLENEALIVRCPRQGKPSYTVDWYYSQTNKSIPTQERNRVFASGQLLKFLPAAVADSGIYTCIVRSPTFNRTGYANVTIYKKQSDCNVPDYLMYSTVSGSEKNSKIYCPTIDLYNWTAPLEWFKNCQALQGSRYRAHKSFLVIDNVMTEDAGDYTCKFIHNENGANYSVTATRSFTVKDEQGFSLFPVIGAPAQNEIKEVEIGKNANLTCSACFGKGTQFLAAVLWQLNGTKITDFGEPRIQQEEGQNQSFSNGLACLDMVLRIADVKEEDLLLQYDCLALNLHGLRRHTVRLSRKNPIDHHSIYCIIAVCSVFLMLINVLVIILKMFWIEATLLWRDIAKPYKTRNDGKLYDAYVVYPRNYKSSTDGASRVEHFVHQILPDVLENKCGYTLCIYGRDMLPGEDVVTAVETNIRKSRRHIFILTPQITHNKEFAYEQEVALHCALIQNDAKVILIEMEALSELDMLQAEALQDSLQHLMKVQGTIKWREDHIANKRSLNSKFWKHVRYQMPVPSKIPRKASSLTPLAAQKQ
Test: cell-based or functional assay
Reported metric: IC50, inhibition of KU812-IL5 production promoted by reduced IL33 (µg/mL)
Numbers only, in µg/mL.

Here's what some known entries look like.
Binder	Unit spec	Test value
5886-156-H1L0 (antibody, human IgG4 S228P, kappa, V domains shown, Humanized antibody expressed in CHO-K1, purified by protein A) VH: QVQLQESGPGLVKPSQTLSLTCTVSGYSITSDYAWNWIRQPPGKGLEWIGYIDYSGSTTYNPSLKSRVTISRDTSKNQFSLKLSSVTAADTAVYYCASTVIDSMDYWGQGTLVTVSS VL: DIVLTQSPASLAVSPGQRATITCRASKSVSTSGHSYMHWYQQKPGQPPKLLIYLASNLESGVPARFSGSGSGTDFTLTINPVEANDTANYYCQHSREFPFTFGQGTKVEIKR	µg/mL	0.752
Control antibody CNTO7160 (antibody, human IgG4 S228P, kappa, V domains shown, Known anti-ST2 control antibody) VH: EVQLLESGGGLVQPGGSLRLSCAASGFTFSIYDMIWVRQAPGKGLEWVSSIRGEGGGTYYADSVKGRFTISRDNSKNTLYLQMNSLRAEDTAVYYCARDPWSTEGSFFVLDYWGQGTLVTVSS VL: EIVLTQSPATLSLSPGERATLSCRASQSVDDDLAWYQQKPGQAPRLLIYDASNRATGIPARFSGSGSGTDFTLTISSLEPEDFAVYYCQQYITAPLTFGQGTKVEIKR	µg/mL	1.47

-- ask Item 5888-379-H2L1 (antibody, human IgG4 S228P, kappa, V domains shown, Humanized antibody) VH: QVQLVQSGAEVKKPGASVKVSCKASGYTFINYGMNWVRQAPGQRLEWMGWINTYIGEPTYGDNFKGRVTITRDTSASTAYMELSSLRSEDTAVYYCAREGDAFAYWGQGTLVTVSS VL: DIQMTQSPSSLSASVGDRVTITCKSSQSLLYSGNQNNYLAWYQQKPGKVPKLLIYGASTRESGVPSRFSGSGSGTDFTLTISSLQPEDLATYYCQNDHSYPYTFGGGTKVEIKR has what recorded IC50, inhibition of KU812-IL5 production promoted by reduced IL33?
-- reply 2.87

Where do these numbers come from? They come from patent US12624112.
